For each record, write down the corresponding binding signal.
# Target: ETS1 (Homo sapiens)
# Sequence (P14921 whole entry, looked up): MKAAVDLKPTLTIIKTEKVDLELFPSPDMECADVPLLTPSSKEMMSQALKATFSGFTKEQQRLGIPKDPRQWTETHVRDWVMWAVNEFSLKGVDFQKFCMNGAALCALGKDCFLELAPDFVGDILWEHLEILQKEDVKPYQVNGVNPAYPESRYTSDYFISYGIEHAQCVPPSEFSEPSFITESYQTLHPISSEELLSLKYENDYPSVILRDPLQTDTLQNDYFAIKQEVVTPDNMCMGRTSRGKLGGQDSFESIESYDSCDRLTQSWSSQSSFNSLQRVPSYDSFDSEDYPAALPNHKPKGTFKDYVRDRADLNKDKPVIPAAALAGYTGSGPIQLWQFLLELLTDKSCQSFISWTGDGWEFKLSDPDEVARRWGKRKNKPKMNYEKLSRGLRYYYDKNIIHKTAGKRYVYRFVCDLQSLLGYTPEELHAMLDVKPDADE
# Method notes: PBM
# Measurement context: Custom protein-binding microarray; buffer, salt, pH and temperature not given in the material
Unit log signal implied. Number only.

Ask: What value of binding signal has been recorded for this entry: CGGAAGTGTCGTAAACGTCGGTTATCCGGTTCTTCTGTCTTGATTCGCTTGACGCTGCTG (double strand) [seq01_p22 A>T]
Reply: 9.21

Ask: What value of binding signal has been recorded for this entry: GCTGCTGCGGTGCATACCCCACCGGATGTGACCCCGGTCTTGATTCGCTTGACGCTGCTG (double strand) [seq02_wt0]
Reply: 10.2

Ask: What value of binding signal has been recorded for this entry: CGGAAGTGTCGTAAACGTCGGATATCGGGTTCTTCTGTCTTGATTCGCTTGACGCTGCTG (double strand) [seq01_p27 C>G]
Reply: 8.65

Ask: What value of binding signal has been recorded for this entry: CGGAAGTGTCGTAAACGTCGGATAGCCGGTTCTTCTGTCTTGATTCGCTTGACGCTGCTG (double strand) [seq01_p25 T>G]
Reply: 8.18

Ask: What value of binding signal has been recorded for this entry: CGGAAGTGTCGTAAACGTCGGATATCCGGGTCTTCTGTCTTGATTCGCTTGACGCTGCTG (double strand) [seq01_p30 T>G]
Reply: 10.2

Ask: What value of binding signal has been recorded for this entry: CGGAAGTGTCGTAAACGTCGGATATCCGATTCTTCTGTCTTGATTCGCTTGACGCTGCTG (double strand) [seq01_p29 G>A]
Reply: 8.64

Ask: What value of binding signal has been recorded for this entry: CGGAAGTGTCGTAAACGTCGGATATCCGGCTCTTCTGTCTTGATTCGCTTGACGCTGCTG (double strand) [seq01_p30 T>C]
Reply: 10.7

The reported measurements were obtained from paper PMC6602471.
